All figures here come from ChEMBL document CHEMBL1138663.

Target: Aromatase (Homo sapiens, UniProt P11511)
Sequence (P11511 whole entry): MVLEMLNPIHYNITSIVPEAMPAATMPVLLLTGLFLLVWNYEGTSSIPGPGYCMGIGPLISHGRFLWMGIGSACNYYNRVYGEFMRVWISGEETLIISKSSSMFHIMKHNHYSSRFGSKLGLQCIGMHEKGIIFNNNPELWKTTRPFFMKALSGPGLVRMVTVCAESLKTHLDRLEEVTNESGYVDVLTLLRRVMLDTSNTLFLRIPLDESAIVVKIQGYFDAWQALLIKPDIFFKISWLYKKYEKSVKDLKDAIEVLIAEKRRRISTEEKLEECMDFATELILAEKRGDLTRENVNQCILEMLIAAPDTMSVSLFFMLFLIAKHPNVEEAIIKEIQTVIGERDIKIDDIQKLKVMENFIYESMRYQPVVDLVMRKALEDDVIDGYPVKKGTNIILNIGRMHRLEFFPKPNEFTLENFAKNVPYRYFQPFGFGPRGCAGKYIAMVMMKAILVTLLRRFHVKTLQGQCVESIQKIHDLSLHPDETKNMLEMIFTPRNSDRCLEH
quantityMeasured: Ki (µM)
Unit µM implied. Number only.

Input line: Quick check: Ki of `O=c1c(-c2ccc(O)cc2)coc2cc(O)cc(O)c12` ?
Output line: 123
